Where do these numbers come from? They come from PubChem BioAssay (NCI).

Tested on: HCT-15 colon
assay info: NCI tumour cell line growth inhibition, 48 h; in the data active = GI50 below about 0.43 µM; inactive = the rest
# valid calls are 1 = active, 0 = inactive; nothing else

{"molecule": "O=C(O)c1c(Cl)c(Cl)c(Cl)c(Cl)c1-c1c2cc(I)c(=O)c(I)c-2oc2c(I)c(O)c(I)cc12", "category label": 0}
{"molecule": "CC(C)=CCC[C@](C)(O)[C@H]1CC[C@]2(C)[C@@H]1CC[C@@H]1[C@@]3(C)CC[C@H](OC(=O)CCC(=O)O)C(C)(C)[C@@H]3CC[C@]12C", "category label": 0}
{"molecule": "COCCOC(=O)CCn1cc(F)c(=O)[nH]c1=O", "category label": 0}
{"molecule": "C=C1C(=O)O[C@H]2[C@H](OC(C)=O)[C@@H](C)CCC/C(C)=C/CC[C@]3(CO3)[C@H](O)C[C@@H]12", "category label": 0}

Input line: Fill in: this test's call for `COCCn1cc(-c2csc(-c3c[nH]c4ccc(F)cc34)n2)c2cccnc21` is ___
Output line: 0

Input line: Hey, what did the test say about `COCCOCCOCCOCCOc1ccc2c(c1)C(=O)c1nc3ncccc3c(=O)n1-2` ?
Output line: 0

Input line: Dear colleague, could you share the recorded outcome for CC(=O)OCC1OC(O[C@@H]2C[C@H]3C(C)(C)[C@H](OC(C)=O)CC[C@]3(C)[C@H]3CC[C@@H]4[C@]5(CC[C@@]4(C)[C@@]32C)O[C@@H]([C@H](O)C(C)(C)O)C[C@@H]5C)C(O)C(O)C1O (stereo not given in full) when you have a moment?
Output line: 0
